Item-by-item account of Ki
Tgt: HCV NS3 protease domain (Hepatitis C virus genotype 1b, UniProt Q9WMX2)
Construct: The first 181 amino acids of NS3 (residues 1027-1207 of the viral polyprotein); hexa-histidine (C); made in house; host or cells: E. coli BL21/DE3 pLysS
Sequence (Q9WMX2 1027-1207, other chains not shown): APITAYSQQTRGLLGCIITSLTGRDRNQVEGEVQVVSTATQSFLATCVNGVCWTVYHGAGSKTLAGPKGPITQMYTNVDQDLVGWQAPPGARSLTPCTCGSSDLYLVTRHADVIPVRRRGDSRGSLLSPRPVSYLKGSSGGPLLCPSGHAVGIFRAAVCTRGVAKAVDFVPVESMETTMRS
Procedure Text: biochemical
Conditions Used: Enzyme Assay 1 (HCV NS3 Protease Domain Peptide Cleavage Assay) activity, apparent Ki class

Compound: CCC[C@H](NC(=O)[C@@H]1C[C@]2(CC(c3cccc(Cl)c3)=NO2)CN1C(=O)Oc1ccc([N+](=O)[O-])cc1)C(=O)C(=O)NC1CC1 [Compound 262]
Ki: > 500 nM
--
Compound: CCC[C@H](NC(=O)[C@@H]1C[C@]2(CC(c3ccc(C)c(C)c3)=NO2)CN1C(=O)[C@@H](NC(=O)O[C@H]1CCOC1)C(C)(C)C)C(=O)C(=O)NC1CC1 [Compound 36]
Ki: 100 to 500 nM
--
Compound: CCC[C@H](NC(=O)[C@@H]1C[C@]2(CC(c3cccc(Cl)c3)=NO2)CN1C(=O)[C@@H](NC(=O)CCc1cccnc1)C(C)(C)C)C(=O)C(=O)NC1CC1 [Compound 504]
Ki: 100 to 500 nM
--
Compound: CCC[C@H](NC(=O)[C@@H]1C[C@]2(CC(c3cccc(Cl)c3)=NO2)CN1C(=O)[C@@H](NC(=O)C=C1CCCCC1)C(C)(C)C)C(=O)C(=O)NC1CC1 [Compound 252]
Ki: 100 to 500 nM
--
Compound: CCC[C@H](NC(=O)[C@@H]1C[C@@]2(CC(c3ccccc3)=NO2)CN1C(=O)[C@@H](NC(=O)[C@@H](NC(=O)c1cnccn1)C1CCCCC1)C(C)(C)C)C(=O)C(=O)NC1CC1 [Compound 428]
Ki: 100 to 500 nM
--
Compound: CC(C)(C)[C@H](NC(=O)CC1CCCCC1)C(=O)N1C[C@@]2(CC(c3cccc(Cl)c3)=NO2)C[C@H]1C(=O)N[C@@H](CC1CCC1)C(=O)C(=O)NC1CC1 [Compound 23]
Ki: < 100 nM
--
Compound: CCC[C@H](NC(=O)[C@@H]1C[C@]2(CC(c3cccc(Cl)c3)=NO2)CN1C(=O)[C@@H](NC(=O)CC1CCCCC1)C(C)(C)C)C(=O)C(=O)NCc1ccccc1 [Compound 77]
Ki: 100 to 500 nM
--
Compound: COc1cc(OC)c(C2=NO[C@]3(C2)C[C@@H](C(=O)NC(CC2CCC2)C(=O)C(=O)NC2CC2)N(C(=O)[C@@H](NC(=O)CC2CCOCC2)C(C)(C)C)C3)cc1Cl (some centres unmarked) [Compound 282]
Ki: > 500 nM
--
Compound: CCC[C@H](NC(=O)[C@@H]1C[C@]2(CC(c3cccc(Cl)c3)=NO2)CN1C(=O)C1CC1c1ccccc1)C(=O)C(=O)NC1CC1 (some centres unmarked) [Compound 421]
Ki: > 500 nM
--
Compound: CCC[C@H](NC(=O)[C@@H]1C[C@]2(CC(c3ccc(F)c(C(F)(F)F)c3)=NO2)CN1C(=O)[C@@H](NC(=O)O[C@H]1CCOC1)C(C)(C)C)C(=O)C(=O)NC1CC1 [Compound 545]
Ki: 100 to 500 nM
--
Compound: CCC[C@H](NC(=O)[C@@H]1C[C@]2(CC(c3cccc(Cl)c3)=NO2)CN1C(=O)[C@@H](NC(=O)CC1CCCCC1)C(C)(C)C)C(=O)C(=O)NCc1ccncc1 [Compound 461]
Ki: > 500 nM
--
Compound: C#CCCC(NC(=O)[C@@H]1C[C@]2(CC(c3cc(Cl)c(OC)cc3OC)=NO2)CN1C(=O)[C@@H](NC(=O)CC1CCOCC1)C(C)(C)C)C(=O)C(=O)NC1CC1 (some centres unmarked) [Compound 510]
Ki: 100 to 500 nM
--
Compound: CCC[C@H](NC(=O)[C@@H]1C[C@]2(CC(c3cccc(Cl)c3)=NO2)CN1C(=O)C1CCN(c2ccccc2)C1=O)C(=O)C(=O)NC1CC1 (some centres unmarked) [Compound 65]
Ki: > 500 nM
--
Compound: CCC[C@H](NC(=O)[C@@H]1C[C@]2(CC(c3cccc(Cl)c3)=NO2)CN1C(=O)[C@@H](NC(=O)CC1CCCCC1)C(C)(C)C)C(=O)C(=O)NCC1COc2ccccc2O1 (some centres unmarked) [Compound 141]
Ki: > 500 nM
